# experiment: protein stability index of a GFP-peptide fusion (yeast GPS) (PSI 1-4); higher = more stable; sorted into four equal gates, so the index is relative within each strain
# measurement-parameters: doa10∆
recorded-endpoint: protein stability index
Format: numeric value only, no unit, no commentary.

INSERT INTO measurements (query_sequence, data_value) VALUES
  ('KIDSHVVLSFSGLNADS [PRE6]', 1.8),
  ('LDDLVVLKKKNIQKKQP [RRP6]', 1.44),
  ('FHAEPSGTFYRYNAKAI [PUP2]', 2.79),
  ('RGSLDSEHVFDYFFYFL [NUT1]', 2.8),
  ('MSIDEEDKDSESFSEVC [YCG1]', 2.71);

Looking up KRKVLELKKKRKIKRLE [SRP72] , I found its protein stability index recorded as 3.24

Looking up QQAQARLQQGRRLPMTM [SNF2] , I found its protein stability index recorded as 3.1

Looking up HGKASRQQYYSGVQVGG [SNF6] , I found its protein stability index recorded as 2.43

Looking up MVLYKRKPILLPDPKPL [ITC1] , I found its protein stability index recorded as 2.88
